Biological target: recombinant human DPP8 (Homo sapiens, UniProt Q6V1X1)
Construct: purchased PBS Bioscience
Sequence (Q6V1X1 whole entry): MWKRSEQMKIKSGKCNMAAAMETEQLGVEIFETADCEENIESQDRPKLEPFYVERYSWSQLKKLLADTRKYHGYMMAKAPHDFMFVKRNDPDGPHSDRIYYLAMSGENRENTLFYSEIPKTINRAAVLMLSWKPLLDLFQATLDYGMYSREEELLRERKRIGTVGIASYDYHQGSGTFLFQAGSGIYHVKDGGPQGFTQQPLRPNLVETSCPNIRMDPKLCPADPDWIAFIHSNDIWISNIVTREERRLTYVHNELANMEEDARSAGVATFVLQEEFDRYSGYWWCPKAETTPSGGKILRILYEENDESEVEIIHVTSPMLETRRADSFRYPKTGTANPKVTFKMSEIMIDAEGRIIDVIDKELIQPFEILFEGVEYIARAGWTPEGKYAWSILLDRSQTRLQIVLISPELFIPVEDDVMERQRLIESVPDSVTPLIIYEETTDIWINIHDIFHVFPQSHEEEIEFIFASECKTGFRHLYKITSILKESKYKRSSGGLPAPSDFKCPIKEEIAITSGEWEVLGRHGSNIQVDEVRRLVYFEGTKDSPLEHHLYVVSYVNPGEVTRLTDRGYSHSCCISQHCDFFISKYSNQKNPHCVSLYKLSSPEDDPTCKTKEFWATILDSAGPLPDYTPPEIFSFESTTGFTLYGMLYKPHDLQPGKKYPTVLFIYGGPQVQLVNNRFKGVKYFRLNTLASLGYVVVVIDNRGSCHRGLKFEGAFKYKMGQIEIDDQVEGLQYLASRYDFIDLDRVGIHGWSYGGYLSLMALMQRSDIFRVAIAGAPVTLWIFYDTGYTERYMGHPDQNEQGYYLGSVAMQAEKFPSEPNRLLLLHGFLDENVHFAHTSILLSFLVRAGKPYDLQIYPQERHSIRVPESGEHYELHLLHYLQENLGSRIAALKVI
Assay: DPP8 inhibition, fluorogenic substrate Z-Ala-Pro-AMC
Assay type: biochemical
Conditions: 25° C., Z-Ala-Pro-AMC substrate
pIC50: −log10 of the molar value.
metric: pIC50

Sample answers from the record:
[[record]]
compound = "N#C[C@@H]1CCCN1C(=O)CN1CC[C@H](NC(=O)c2coc3cc(O)ccc23)C1 [Example 49]"
metric = "pIC50"
quantitative_result = 4.91

[[record]]
compound = "N#C[C@@H]1CCCN1C(=O)CN1CC[C@H](Oc2ccc(Cl)c3cccnc23)C1 [Example 81]"
metric = "pIC50"
quantitative_result = 4.56


1 = N#C[C@@H]1C[C@H](F)CN1C(=O)CN1CCC(Nc2cc(F)cc3ncccc23)CC1 [Example 132]
2 = COc1ccc2c(C(=O)N[C@H]3CCN(CC(=O)N4C[C@@H](F)C[C@H]4C#N)C3)coc2c1 [Example 136]
For the pair 1 and 2 , which entry has the numerically smaller recorded pIC50? # answer = label of selected item
2

---

Biological target: recombinant human DPP7 (Homo sapiens, UniProt Q9UHL4)
Construct: purchased R&D Systems
Assay: DPP7 inhibition, fluorogenic substrate Lys-Pro-AMC
Assay type: biochemical
Settings: recombinant human DPP7
metric: IC50 (µM)

Sample answers from the record:
[[record]]
smiles_str = "N#C[C@@H]1C[C@H](F)CN1C(=O)CN1CC[C@H](Nc2c(F)ccc3ncccc23)C1"
result_units = "µM"
quantitative_result = 6.57

[[record]]
smiles_str = "N#C[C@@H]1CCCN1C(=O)CN1CC[C@@H](Nc2ccc(C(F)(F)F)c3ncccc23)C1"
result_units = "µM"
quantitative_result = 3.91


1 = N#C[C@@H]1CCCN1C(=O)CN1CC[C@H](Nc2c(F)ccc3ncccc23)C1
2 = Cc1cc(N[C@H]2CCN(CC(=O)N3C[C@@H](F)C[C@H]3C#N)C2)cc2cccnc12
Which value of IC50 is numerically greater: that of 1 or that of 2 ? # answer = label of selected item
1

---

Molecular target: recombinant human DPP7 (Homo sapiens, UniProt Q9UHL4)
Construct: purchased R&D Systems
Assay: DPP7 inhibition, fluorogenic substrate Lys-Pro-AMC
Format: biochemical
Conditions: recombinant human DPP7
metric: IC50 (nM)

[[record]]
smiles_str = "COc1cc(N[C@@H]2CCN(CC(=O)N3CCC[C@H]3C#N)C2)c2cccnc2c1"
target_under_test = "recombinant human DPP7 (Homo sapiens, UniProt Q9UHL4)"
metric = "IC50"
quantitative_result = 901

[[record]]
smiles_str = "N#C[C@@H]1CCCN1C(=O)CN1CC[C@H](Nc2ccc(OCc3ccccc3)c3ncccc23)C1"
target_under_test = "recombinant human DPP7 (Homo sapiens, UniProt Q9UHL4)"
metric = "IC50"
quantitative_result = 810

[[record]]
smiles_str = "N#C[C@@H]1C[C@H](F)CN1C(=O)CN1CC[C@@H](Nc2cnc3ccccc3c2)C1"
target_under_test = "recombinant human DPP7 (Homo sapiens, UniProt Q9UHL4)"
metric = "IC50"
quantitative_result = 1150

[[record]]
smiles_str = "N#C[C@@H]1CCCN1C(=O)CN1CCC(Nc2ccc(C(=O)Nc3cccnc3)c3ncccc23)CC1"
target_under_test = "recombinant human DPP7 (Homo sapiens, UniProt Q9UHL4)"
metric = "IC50"
quantitative_result = 961

[[record]]
smiles_str = "CCN(c1cnc2ccccc2c1)C1CCN(CC(=O)N2C[C@@H](F)C[C@H]2C#N)CC1"
target_under_test = "recombinant human DPP7 (Homo sapiens, UniProt Q9UHL4)"
metric = "IC50"
quantitative_result = 1050


---

Molecular target: Recombinant human FAP (Homo sapiens)
Construct: purchased R&D systems
Assay: FAP FRET assay, FGF21-sequence FRET peptide substrate
Format: biochemical
Conditions: FRET peptide with human FGF21 sequence, 6 μM, 37° C.
metric: IC50 (nM)

Sample answers from the record:
[[record]]
smiles_str = "COc1ccnc2ccc(N[C@@H]3CCN(CC(=O)N4C[C@@H](F)C[C@H]4C#N)C3)cc12"
metric = "IC50"
quantitative_result = 8

[[record]]
smiles_str = "CN(c1cccc2ncc(F)cc12)[C@H]1CCN(CC(=O)N2C[C@@H](F)C[C@H]2C#N)C1"
metric = "IC50"
quantitative_result = 2.7

[[record]]
smiles_str = "N#C[C@@H]1CCCN1C(=O)CN1CC[C@@H](Nc2ccc(C(F)(F)F)c3ncccc23)C1"
metric = "IC50"
quantitative_result = 1.3

[[record]]
smiles_str = "Cc1ccc2ncccc2c1N[C@@H]1CCN(CC(=O)N2C[C@@H](F)C[C@H]2C#N)C1"
metric = "IC50"
quantitative_result = 6.2


A = N#C[C@@H]1CCCN1C(=O)CN1CCC(Nc2ccc(C(=O)Nc3ccncc3)c3ncccc23)CC1
B = Cc1cccc2c(OC3CCN(CC(=O)N4C[C@@H](F)C[C@H]4C#N)CC3)ccnc12
Which value of IC50 is numerically greater: that of A or that of B ? # answer = label of selected item
A

---

Molecular target: Recombinant human FAP (Homo sapiens)
Construct: purchased R&D systems
Sequence (Q12884 1-760): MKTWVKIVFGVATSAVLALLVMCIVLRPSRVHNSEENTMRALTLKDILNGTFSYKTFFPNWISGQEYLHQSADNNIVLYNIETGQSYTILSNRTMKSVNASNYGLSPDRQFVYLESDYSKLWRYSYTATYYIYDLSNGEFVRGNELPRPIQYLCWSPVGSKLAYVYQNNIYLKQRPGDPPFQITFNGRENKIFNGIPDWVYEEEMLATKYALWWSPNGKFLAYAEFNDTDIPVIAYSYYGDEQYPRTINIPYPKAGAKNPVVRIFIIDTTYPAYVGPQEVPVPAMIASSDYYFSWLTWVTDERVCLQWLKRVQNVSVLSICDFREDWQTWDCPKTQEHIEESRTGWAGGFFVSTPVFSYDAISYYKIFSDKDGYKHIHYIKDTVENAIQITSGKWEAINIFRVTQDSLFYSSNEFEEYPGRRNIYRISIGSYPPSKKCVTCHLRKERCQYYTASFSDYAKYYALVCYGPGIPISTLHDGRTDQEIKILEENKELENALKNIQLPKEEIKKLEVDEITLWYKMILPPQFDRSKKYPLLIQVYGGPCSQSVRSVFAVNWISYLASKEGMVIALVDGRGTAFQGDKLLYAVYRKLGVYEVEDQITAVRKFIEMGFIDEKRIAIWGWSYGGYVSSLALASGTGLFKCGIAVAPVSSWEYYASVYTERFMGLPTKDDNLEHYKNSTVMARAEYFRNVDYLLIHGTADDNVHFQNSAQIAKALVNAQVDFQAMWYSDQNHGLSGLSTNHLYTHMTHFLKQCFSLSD
Assay: FAP FRET assay, FGF21-sequence FRET peptide substrate
Type: biochemical
Details: FRET peptide with human FGF21 sequence, 6 μM, 37° C.
pIC50: −log10 of the molar value.
metric: pIC50

Sample answers from the record:
[[record]]
smiles_str = "N#C[C@@H]1CCCN1C(=O)CN1CC[C@H](Nc2ccc(C(=O)Nc3cccnc3)c3ncccc23)C1"
quantitative_result = 8.96

[[record]]
smiles_str = "N#C[C@@H]1CCCN1C(=O)CN1CC[C@@H](Nc2ccc(F)c3ncccc23)C1"
quantitative_result = 8.64

[[record]]
smiles_str = "N#Cc1ccc2c(OC3CCN(CC(=O)N4C[C@@H](F)C[C@H]4C#N)CC3)cccc2n1"
quantitative_result = 8.19

[[record]]
smiles_str = "N#C[C@@H]1C[C@H](F)CN1C(=O)CN1CC[C@H](Nc2cccc3ncc(F)cc23)C1"
quantitative_result = 9.00


a = N#C[C@@H]1C[C@H](F)CN1C(=O)CN1CCC(Oc2ccnc3c(F)cccc23)CC1
b = N#C[C@@H]1CCCN1C(=O)CN1CC[C@H](Nc2ccc(C(=O)Nc3ccccc3)c3ncccc23)C1
Which value of pIC50 is numerically greater: that of a or that of b ? # answer = label of selected item
b
(b: 8.92, a: 8.49)

P = N#C[C@@H]1C[C@H](F)CN1C(=O)CN1CC[C@@H](Nc2ccc(OC(F)(F)F)c3ncccc23)C1
Q = N#C[C@@H]1C[C@H](F)CN1C(=O)CN1CCC(Nc2cc(Cl)c3ncccc3c2)CC1
For the pair P and Q , which entry has the numerically smaller recorded pIC50? # answer = label of selected item
Q

a = N#C[C@@H]1CCCN1C(=O)CN1CCC(Nc2ccc(C(=O)Nc3cccnc3)c3ncccc23)CC1
b = CCOc1ccc(NC2CCN(CC(=O)N3CCC[C@H]3C#N)CC2)c2cccnc12
c = CN(C(=O)c1ccc(N[C@H]2CCN(CC(=O)N3CCC[C@H]3C#N)C2)c2cccnc12)c1ccccc1
d = N#C[C@@H]1C[C@H](F)CN1C(=O)CN1CCC(Nc2ccnc3cccnc23)CC1
Order these by pIC50, descending, and give the full ranking. Answer by listing the labels in the order asked for.
a, b, c, d
(a: 8.64, b: 7.96, c: 7.44, d: 7.11)

a = N#C[C@@H]1C[C@H](F)CN1C(=O)CN1CCC(Nc2ccc(C(F)(F)F)c3ncccc23)CC1
b = N#C[C@@H]1C[C@H](F)CN1C(=O)CN1CCC(Nc2cccc3ncsc23)CC1
c = N#C[C@@H]1C[C@H](F)CN1C(=O)CN1CC[C@@H](Nc2ccnc3c(C(F)(F)F)cccc23)C1
Arrange items by their pIC50 values in increasing order. Answer by listing the labels in the order asked for.
b, c, a
(b: 7.29, c: 8.13, a: 8.59)

I = N#C[C@@H]1C[C@H](F)CN1C(=O)CN1CCC(Nc2cccc3cnc(Cl)cc23)CC1
II = CN(C(=O)c1ccc(NC2CCN(CC(=O)N3C[C@@H](F)C[C@H]3C#N)CC2)c2cccnc12)c1ccccc1
Which value of pIC50 is numerically greater: that of I or that of II ? # answer = label of selected item
I
